Each entry below carries its reported factor contribution.
System: stage 1 neural stem cells
protocol.summary: HD-DoE 12-factor experiment for stage 2 recipe (first model, FIG. 5-7, 12)
Format: cell-based, human
run.conditions: model optimized for maximum expression of FOXA2; positive impact
// keep it numeric: no unit symbol after the value

Worked cases, factor contribution given:
- compound: "Cc1c[nH]c(-c2cnc(NCCNc3ccc(C#N)cn3)nc2-c2ccc(Cl)cc2Cl)n1 [CHIR99021]"
  target.system: "stage 1 neural stem cells"
  value.measured: 10.7
- compound: "c1ccc2c(Oc3nc(Nc4ccc(N5CCOCC5)cc4)c4ncn(C5CCCCC5)c4n3)cccc2c1 [Purmorphamine]"
  target.system: "stage 1 neural stem cells"
  value.measured: 15.3
- compound: "C/C(=C\\c1ccc(C(=O)O)cc1)c1ccc2c(c1)C(C)(C)CCC2(C)C [TTNPB]"
  target.system: "stage 1 neural stem cells"
  value.measured: 10.7

Next item in the queue.
Form field factor contribution, entry Cc1cccc(-c2nn(C(=S)Nc3ccccc3)cc2-c2ccnc3ccccc23)n1 [A 83-01] : 6.7

* * *

Tested on: stage 2 neural progenitors
protocol.summary: HD-DoE 12-factor model for stage 3 recipe (FIG. 19-23, 29)
Assay type: cell-based, human
run.conditions: model optimized for maximum expression of KCNJ6; positive regulators
Each entry below carries its reported factor contribution.
// keep it numeric: no unit symbol after the value

- chemical.string: "Cc1ccc(C2=CCC(C)(C)c3ccc(C#Cc4ccc(C(=O)O)cc4)cc32)cc1"
  target.system: "stage 2 neural progenitors"
  factor contribution: 17
- chemical.string: "Cc1c[nH]c(-c2cnc(NCCNc3ccc(C#N)cn3)nc2-c2ccc(Cl)cc2Cl)n1"
  target.system: "stage 2 neural progenitors"
  factor contribution: 10.7

Next item in the queue.
Item O=C(NOC[C@H](O)CO)c1ccc(F)c(F)c1Nc1ccc(I)cc1F was tested on stage 2 neural progenitors; the reported factor contribution is 10.9
